Origin of measurements: patent EP4714976A1

target: extracellular domain of the FGFR2b protein (NP_075259.4) (UniProt P21802); assay: phage ELISA
Sequence (P21802 other isoform, or with tags, fused parts or gaps): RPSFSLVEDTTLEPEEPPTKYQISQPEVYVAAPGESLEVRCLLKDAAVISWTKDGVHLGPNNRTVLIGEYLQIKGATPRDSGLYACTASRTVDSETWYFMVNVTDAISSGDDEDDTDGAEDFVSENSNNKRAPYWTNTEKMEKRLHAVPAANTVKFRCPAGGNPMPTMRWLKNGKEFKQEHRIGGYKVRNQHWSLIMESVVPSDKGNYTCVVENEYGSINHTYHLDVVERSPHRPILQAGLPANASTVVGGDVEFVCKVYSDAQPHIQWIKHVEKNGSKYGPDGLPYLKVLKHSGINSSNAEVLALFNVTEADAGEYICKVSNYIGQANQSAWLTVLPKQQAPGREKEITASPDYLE
Kindly supply the reported OD (450 nm) value values for the records listed here.
// print number alone

q: Consider the binder 1B8 scFv displayed on phage (scFv) scFv: QIQLQQSGAELVKPGASVKMSCKASGYTFASYNLHWVKQTPGQGLEWIGLIYPENGDTSYNQKFKGKATLTADTSSTTAYIQLSSLTSEDSAVYFCARGGFDYWGQGTSLTVSSGGGGSGGGGSGGGGSDIKMTQSPASLSASVGETVTITCGASENIYGALNWYQRKQGKSPQLLIYGATNLADGMSSRFSGSGSGRQYSLKISSLHPDDVATYYCQNVLSTPYTFGGGTKLEIK and give its measured OD (450 nm) value.
a: 2.65

q: So what does the record say about OD (450 nm) value for 3A8 scFv displayed on phage (scFv) scFv: QVQLQQSGAELVKPGASVKMSCKASGYTFTIYNIHWVRQTPGQGLEWIGLIYPDNGDTSYNQKFKAKATLTADKSSSTAYMQLSSLTSEDSAVYYCARGGFDYWGQGTSLTVSSGGGGSGGGGSGGGGSDIVMTQSQKFMSTSVGDRVSVTCKASQNVGTNVAWYQQKPGQSPKALIYSASYRYSGVPDRFTGSGSGTDFTLTISNVQAEDLADYFCQQHYSTPYTFGGGTKLEMK ?
a: 2.22

q: What does the data say about its OD (450 nm) value? Entry: 3E7 scFv displayed on phage (scFv) scFv: QVQLQQSGAELVKPGASVKMSCKASGYTFTIYNIHWVRQTPGQGLEWIGLIYPDNGDTSYNQKFKAKATLTADKSSSTAYMQLSSLTSEDSAVYYCARGGFDYWGQGTTLTVSSGGGGSGGGGSGGGGSNIVMTQSQKFMSTSVGDRVSVTCKASQNVGTNVAWYQQKPGQSPKALIYSASYRYSGVPDRFTGSGSGTDFTLTISGVQAEDLADYYCQQHYNTPYTFGGGTKLEIK
a: 1.88
